tested on: LXRb:RXRa (NR concentration 270 nM, RXRa partner concentration 90 nM); assay: PBM binding z-score (relative to random genomic background probes); higher = stronger binding; sequences stand for … in GC…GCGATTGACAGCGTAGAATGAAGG
Exercise: for every item that follows, state its recorded PBM binding z-score.
Numbers only.

CGAACTACGTCATCCAGGACAGTGAATACATTGA; -0.00555
CCTTAAGGGTCACGAGGTTATAGCACGACGAGCG; 5.38
GCTGCTAGTTCAACTGATGGTCAGCTAAAGCTCG; 0.0556
CCTACTGGGCCTAAGGTCATTGATTCCAATGCTC; 3.36

Now consider the entry below.
Note to self: PBM binding z-score recorded for CCTACTGGGCCATTCAGAGGGCATTGATCATATG was -0.224

* * *

system: RARa homodimer (NR concentration 270 nM); assay: PBM binding z-score (relative to random genomic background probes); higher = stronger binding; sequences stand for … in GC…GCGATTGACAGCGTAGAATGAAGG
Reported endpoint: PBM binding z-score

# count of solved cases: 2
CCGAGTTGGTCAAGGTCACACACGCTATAGGTAC; 2.02
CGAACAAGGTCATCCAGGACAGTGAATACATTGA; 2.04

Now consider the entry below.
Entry CCTACTGGGCCGTTCAGAGGTCATTGATCATATG ; assay system RARa homodimer (NR concentration 270 nM); PBM binding z-score recorded at 0.491

* * *

Exercise: for every item that follows, state its recorded PBM binding z-score.
tested on: PPARg homodimer (NR concentration 180 nM); assay: PBM binding z-score (relative to random genomic background probes); higher = stronger binding; sequences stand for … in GC…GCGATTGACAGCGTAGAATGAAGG
Give bare numbers.

# count of solved cases: 4
CGTCCAAGGTCAATGCTAGATCAGTGAAAGCATT; 2.99
GATACAGGGTCAAGGTCAGAGTACGCGTATTGAT; 2.96
AGAATGAGGTCATACGTAGATCAGGGAAGAAAGT; 2.06
TCGCCTAGGTCATGGGCCAGTATACCACGCGAAC; 1.21

Please state, for each entry, its recorded PBM binding z-score.
1. CTATGTAGGTTAGGGGGGTCATTCAGTTTGAAAG
2. AGAATGAGGTTAAGTTCAGGGAAACAGAATACAT
3. CGTCTAAGGTCATAGGAGGTCAGTGAAGACAGAT
4. CCTACTGGGCCAAAGAGGTCATTGATGCCGATAA
5. CAAACGAGGTCACGAAAGGTCAAAGTCGAATGAC

result:
4.93
1.08
6.3
1.81
7.67

* * *

Exercise: for every item that follows, state its recorded PBM binding z-score.
tested on: THRa:RXRa (NR concentration 90 nM, RXRa partner concentration 90 nM); assay: PBM binding z-score (relative to random genomic background probes); higher = stronger binding; sequences stand for … in GC…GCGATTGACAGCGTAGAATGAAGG
Answers are plain numbers.

# count of solved cases: 5
CCTAGTTGGTCAAGGTCACACCCGCTATAGGTAC; 3.94
TCTCGGAGGACACAAAGGTCAGAGCTTTCCAGAG; 3.45
GATATAGGGTCAGCTAGAGGCCAGAGTATGGAAA; 3.42
TATACAGGGTCAAAGGCCAAAGTACGAATGTCGA; 3.76
GATACGGGGTCAAGGCCAGAGTACGCGTATTGAT; 4.23

Please state, for each entry, its recorded PBM binding z-score.
1. AAAACAGGGTCATCGTAGGCCAGAGTACGCACAG
2. CAAACTAGGTCACTAAAGGTCAAAGTCGAATGAC
3. CGAACTAGGTCATTGACAGGACAATGAATAGTAA
4. CGTCAAACTTCAACTAAGGTAACGTAAAGCACGC
5. AATACAGGGTGACTAGGCCAGAGTAGGTACGAAT
6. CTATGTGGGTTAAGGGGGTCATTCAGTTTGAAAG

result:
1. 4.81
2. 5
3. 2.91
4. 2.4
5. 0.915
6. 4.29

Sourced from the supplement of paper PMC6555819
